- MEASURED_ON: HA-MBP-POLE2 (human, UniProt P56282 1-527)
- Sequence (P56282 whole entry): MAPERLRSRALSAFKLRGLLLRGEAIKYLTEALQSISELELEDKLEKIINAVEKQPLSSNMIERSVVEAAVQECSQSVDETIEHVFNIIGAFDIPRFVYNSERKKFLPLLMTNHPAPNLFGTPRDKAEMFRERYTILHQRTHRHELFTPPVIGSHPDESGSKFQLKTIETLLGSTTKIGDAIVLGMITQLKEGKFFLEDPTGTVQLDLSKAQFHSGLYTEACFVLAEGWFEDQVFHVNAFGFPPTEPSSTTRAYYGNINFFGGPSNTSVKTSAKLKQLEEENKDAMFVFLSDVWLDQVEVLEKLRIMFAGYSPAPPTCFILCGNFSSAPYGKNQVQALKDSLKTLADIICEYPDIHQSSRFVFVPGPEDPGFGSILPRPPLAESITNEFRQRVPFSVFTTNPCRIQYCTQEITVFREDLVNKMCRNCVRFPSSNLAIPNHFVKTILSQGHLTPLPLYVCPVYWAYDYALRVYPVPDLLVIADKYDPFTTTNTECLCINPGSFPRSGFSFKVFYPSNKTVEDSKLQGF
- PROTOCOL_TEXT: nHU in cell extract, apparent Kd, f = 0.37
*: point of attachment. Biotin = O=C1N[C@H]2[C@H](CS[C@H]2CCCCC(=O)*)N1; TTDS = Trioxatridecan-succinamic acid linker
MEASURED_METRIC: Kd (nM)
Give the number; nM is assumed, so skip it.

### Prompt For {Biotin-TTDS}-GPAAARRNPFARLDNRPR-NH2 [NPF motif peptide of DONSON (residues 71-88)] , what is its reported Kd?
### Response 1300
